- Target System: Syk kinase (Homo sapiens, UniProt P43405)
- Construct: purchased
- Assay Summary: Syk kinase inhibition, Caliper LabChip off-chip mobility-shift kinase assay
- Format: biochemical
- Experimental Parameters: read-out: Syk Enzyme IC50
Result Type: IC50 (nM)

// worked examples, IC50 included
{"Compound": "COc1ccnc(Nc2cc3cc[nH]c(=O)c3c(Nc3ccc(C4CCN(C5CC5)CC4)c(C)c3)n2)c1 [compound 259]", "Target System": "Syk kinase (Homo sapiens, UniProt P43405)", "Result Type": "IC50", "Result Units": "nM", "Observed Measurement": 255}
{"Compound": "Cc1ncc(-c2cc3cc[nH]c(=O)c3c(Nc3ccc(C4CCN(CCC#N)CC4)c(C)c3)n2)cn1 [compound 73]", "Target System": "Syk kinase (Homo sapiens, UniProt P43405)", "Result Type": "IC50", "Result Units": "nM", "Observed Measurement": 81}

a. Cc1ccnc(Nc2cc3ccn(CCO)c(=O)c3c(NC(C)C)n2)c1 [compound 313]
b. Cn1ccc2cc(Nc3cc(Cl)ccn3)nc(NC3CCC3)c2c1=O [compound 544]
c. CCn1ccc2cc(Nc3cc(C)ccn3)nc(N[C@H]3CCCC[C@H]3O)c2c1=O (racemic) [compound 408]
d. COc1cncc(-c2cc3cc[nH]c(=O)c3c(Nc3ccc(C4CCN(C(=O)C5(C)COC5)CC4)c(C)c3)n2)n1 [compound 75]
e. COc1cncc(-c2cc3cc[nH]c(=O)c3c(Nc3ccc(CCC(=O)N4CCOCC4)cc3)n2)n1 [compound 25]
Rank ascending by IC50. // format: requested-order list of labels
e, d, a, c, b
(e: 24 nM, d: 53 nM, a: 85 nM, c: 324 nM, b: 810 nM)

---

- Target System: Syk kinase (Homo sapiens)
- Construct: purchased
- Assay Summary: Syk kinase inhibition, Caliper LabChip off-chip mobility-shift kinase assay
- Type: biochemical
- Experimental Parameters: Caliper LabChip assay; read-out: Syk Enzyme IC50
Result Type: IC50 (µM)

// worked examples, IC50 included
{"Molecule": "CCn1ccc2cc(Nc3cc(C)ccn3)nc(NC3CCC(C)(O)CC3)c2c1=O (stereo not shown) [compound 950]", "IC50 (µM)": 0.053}
{"Molecule": "CCn1ccc2cc(Nc3cc(C)ccn3)nc(Nc3ccc(C(=O)NCCO)cc3)c2c1=O [compound 834]", "IC50 (µM)": 0.126}
{"Molecule": "CC(C)(C)Nc1nc(Nc2cc(C(=O)O)ccn2)cc2ccn(CCO)c(=O)c12 [compound 680]", "IC50 (µM)": 0.643}

P. CC(C)(C)Nc1nc(Nc2cc(-c3cn[nH]c3)ccn2)cc2ccn(CCO)c(=O)c12 [compound 840]
Q. CCn1ccc2cc(-c3cnc(N)nc3)nc(N[C@H]3CC[C@@H](O)C3)c2c1=O [compound 1039]
Which one would you say has the larger IC50 value: P , or Q ? Indicate your choice by writing its label.
P
(P: 0.117 µM, Q: 0.012 µM)

---

- Target System: Syk kinase (Homo sapiens)
- Construct: purchased
- Assay Summary: Syk kinase inhibition, Caliper LabChip off-chip mobility-shift kinase assay
- Assay type: biochemical
- Experimental Parameters: read-out: Syk Enzyme IC50
Result Type: IC50 (nM)

{"Molecule": "COc1cncc(-c2cc3cc[nH]c(=O)c3c(Nc3ccc(C4CCN(CC(=O)N(C)C)CC4)c(C)c3)n2)n1", "Target System": "Syk kinase (Homo sapiens)", "Result Type": "IC50", "Observed Measurement": 91}

P. Cc1cc(Nc2nc(Nc3ccc(C(N)=O)cn3)cc3cc[nH]c(=O)c23)ccc1C1CCN(C2CC2)CC1
Q. [2H]C([2H])([2H])n1ccc2cc(Nc3cc(Cl)ccn3)nc(NC(C)(C)C)c2c1=O
R. Nc1ncc(-c2cc3cc[nH]c(=O)c3c(N3CCCC3)n2)cn1
S. CCc1ccnc(Nc2cc3cc[nH]c(=O)c3c(NC3CC3)n2)c1
Rank ascending by IC50. // format: requested-order list of labels
R, P, S, Q
(R: 15 nM, P: 58 nM, S: 131 nM, Q: 830 nM)

a. Cc1ccnc(Nc2cc3cc[nH]c(=O)c3c(N[C@H]3CC[C@@H](O)CC3)n2)c1
b. CO/N=C(\C)c1cc2cc[nH]c(=O)c2c(Nc2ccc(C3CCNCC3)c(C)c2)n1
c. CCOC(=O)c1ccc(Nc2cc3cc[nH]c(=O)c3c(Nc3ccc(N4CCOCC4)cc3)n2)nc1
d. COCCCN1CCC(c2ccc(Nc3nc(-c4cncnc4)cc4cc[nH]c(=O)c34)cc2F)CC1
Rank ascending by IC50. // format: requested-order list of labels
a, d, b, c

a. COCCNC(=O)C(C)N1CCC(c2ccc(Nc3nc(-c4cncc(OC)n4)cc4cc[nH]c(=O)c34)cc2C)CC1 (stereo not shown)
b. [2H]C([2H])([2H])n1ccc2cc(Nc3cc(Cl)ccn3)nc(NC3CC3)c2c1=O
c. Cn1ccc2cc(Nc3cnccn3)nc(N)c2c1=O
d. Nc1ncc(-c2cc3cc[nH]c(=O)c3c(N[C@@H]3CCC[C@@H]3O)n2)cn1
e. Cc1ccnc(Nc2cc3cc[nH]c(=O)c3c(Nc3ccc(N4CCO[C@H](C)C4)c(C)c3)n2)c1
List from greatest to least IC50. // format: requested-order list of labels
e, c, b, a, d
